- System: horse erythrocytes
- condition-parameters: 250 µM
Square brackets hold non-standard residues; d marks the D form. Peptide text beside a SMILES is read from it. * marks the point of attachment. Lauroyl = CCCCCCCCCCCC(=O)*; Butyryl = CCCC(=O)*
Below, each of the molecules is paired with its reported Hemolysis value.
measurement-name: Hemolysis (%)

molecule	observed
CCCC(=O)N[C@H](C(=O)N[C@@H](CC(C)C)C(=O)N1CCC[C@H]1C(=O)N[C@H](Cc1ccccc1)C(=O)N[C@@H](CCCCN)C(=O)N[C@H](Cc1ccccc1)C(=O)N1CCC[C@H]1C(=O)N[C@H](Cc1ccccc1)C(=O)N[C@H](Cc1ccccc1)C(=O)N1CCC[C@H]1C(=O)N[C@H](Cc1ccccc1)C(=O)N[C@@H](CCCNC(=N)N)C(=O)N[C@@H](CCCNC(=N)N)C(N)=O)[C@@H](C)CC [BP526] (Butyryl-ILP[dF]K[dF]P[dF][dF]P[dF]RR-NH2)	20.4
CC[C@H](C)[C@H](NC(=O)CN)C(=O)N[C@@H](CC(C)C)C(=O)NCC(=O)N[C@@H](CCCCN)C(=O)N[C@@H](CC(C)C)C(=O)N[C@@H](Cc1c[nH]c2ccccc12)C(=O)N[C@@H](CCC(=O)O)C(=O)NCC(=O)N[C@H](C(=O)N[C@@H](CCCCN)C(=O)N[C@@H](CO)C(=O)N[C@H](C(=O)N[C@@H](Cc1ccccc1)C(N)=O)[C@@H](C)CC)C(C)C [HP1404] (H-GILGKLWEGVKSIF-NH2)	100.0
CCCCCCCCCCCC(=O)N[C@H](C(=O)N[C@@H](CC(C)C)C(=O)N1CCC[C@H]1C(=O)N[C@H](Cc1ccccc1)C(=O)N[C@@H](CCCCN)C(=O)N[C@H](Cc1ccccc1)C(=O)N1CCC[C@H]1C(=O)N[C@H](Cc1ccccc1)C(=O)N[C@H](Cc1ccccc1)C(=O)N1CCC[C@H]1C(=O)N[C@H](Cc1ccccc1)C(=O)N[C@@H](CCCNC(=N)N)C(=O)N[C@@H](CCCNC(=N)N)C(N)=O)[C@@H](C)CC [BP528] (Lauroyl-ILP[dF]K[dF]P[dF][dF]P[dF]RR-NH2)	96.6

###

- System: horse erythrocytes
- condition-parameters: 150 µM
Square brackets hold non-standard residues; d marks the D form. Peptide text beside a SMILES is read from it. * marks the point of attachment. Lauroyl = CCCCCCCCCCCC(=O)*; Hexanoyl = CCCCCC(=O)*
Below, each of the compounds is paired with its reported Hemolysis value.

compound	Hemolysis [%]
CC(=O)N[C@@H](CS)C(=O)O	0.5
CCCCCCCCCCCC(=O)N[C@H](C(=O)N[C@@H](CC(C)C)C(=O)N1CCC[C@H]1C(=O)N[C@H](Cc1ccccc1)C(=O)N[C@@H](CCCCN)C(=O)N[C@H](Cc1ccccc1)C(=O)N1CCC[C@H]1C(=O)N[C@H](Cc1ccccc1)C(=O)N[C@H](Cc1ccccc1)C(=O)N1CCC[C@H]1C(=O)N[C@H](Cc1ccccc1)C(=O)N[C@@H](CCCNC(=N)N)C(=O)N[C@@H](CCCNC(=N)N)C(N)=O)[C@@H](C)CC [BP528] (Lauroyl-ILP[dF]K[dF]P[dF][dF]P[dF]RR-NH2)	92.1
CCCCCC(=O)N[C@H](C(=O)N[C@@H](CC(C)C)C(=O)N1CCC[C@H]1C(=O)N[C@H](Cc1ccccc1)C(=O)N[C@@H](CCCCN)C(=O)N[C@H](Cc1ccccc1)C(=O)N1CCC[C@H]1C(=O)N[C@H](Cc1ccccc1)C(=O)N[C@H](Cc1ccccc1)C(=O)N1CCC[C@H]1C(=O)N[C@H](Cc1ccccc1)C(=O)N[C@@H](CCCNC(=N)N)C(=O)N[C@@H](CCCNC(=N)N)C(N)=O)[C@@H](C)CC [BP527] (Hexanoyl-ILP[dF]K[dF]P[dF][dF]P[dF]RR-NH2)	62.2
